Molecular target: Heat shock factor protein 1 (Homo sapiens)
Experiment: ATG_HSE_CIS: Attagene CIS-FACTORIAL HepG2 Assay for human Heat Shock Transcription Factor 1 (HSE) (AID 2282953)
Conditions: HepG2 HSE cis-reporter, Attagene RNA transcription; actives raise or lower the signal
Calls of active or inactive are those of the source. The calls were made as follows: active = hit-call score of the fitted dose curve at least 0.9, where 1 is the maximum; inactive = score below 0.9.
Can you answer with just one of these options? active, inactive

Examples with answers:
smiles_input=ClC1=C(Cl)[C@]2(Cl)[C@@H]3[C@@H](Cl)[C@H]4O[C@H]4[C@@H]3C1(Cl)C2(Cl)Cl group=active
smiles_input=O=S(=O)(O)C(F)(F)C(F)(F)C(F)(F)C(F)(F)C(F)(F)C(F)(F)F group=inactive
smiles_input=Cc1cc(-c2ccc(N)c(C)c2)ccc1N group=inactive

Tell me the assay call for CCCCCCCCCc1ccc(O)cc1 please. inactive

Tell me the assay call for CC1=C2C[C@H]3[C@@H](CC=C4C[C@@H](O)CC[C@@]43C)[C@@H]2CC[C@]12O[C@@H]1C[C@H](C)CN[C@H]1[C@H]2C please. inactive

Tell me the assay call for Cc1ccccc1O please. inactive

Tell me the assay call for Cc1ccc(O)c(C)c1 please. inactive

Tell me the assay call for c1cc2ccc3cccc4ccc(c1)c2c34 please. inactive
